Test Method Notes: qHTS profiling for inhibitors of Plasmodium falciparum (3D7) proliferation (AID 743322);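 also: infected erythrocytes exposed to compound for 72 h before lysis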
Measurement Parameters: P. falciparum 3D7 proliferation; at 28.7 µM (top of the series) unless noted
Binary call on remaining parasite growth % (stronger effect = lower value) with cut-off 50%: strictly below means yes, and equality or higher means no.

1) O=C(Oc1ccc([N+](=O)[O-])cc1)N1CCC(C(O)(c2ccc3c(c2)OCO3)c2ccc3c(c2)OCO3)CC1 :: yes

Please determine if COc1ccc2c(c1)CC[C@H]1[C@@H]2CC[C@]2(C)[C@@H](NCCCCCCN3C(=O)C=CC3=O)CC[C@H]12 is below 50% in terms of remaining parasite growth % (stronger effect = lower value). no

Please determine if Nc1nc(-c2nn(Cc3ccccc3F)c3ncccc23)nc(N)c1N1CCOCC1 is below 50% in terms of remaining parasite growth % (stronger effect = lower value). no

Please determine if CC[C@H](CO)Nc1nc(NCc2ccccc2)c2ncn(C(C)C)c2n1 is below 50% in terms of remaining parasite growth % (stronger effect = lower value). no
